Sourced from ChEMBL document CHEMBL3885881

Reported values of ABSOLUTE LYMPHOCYTE for individual entries
organism: Rattus norvegicus; assay: DrugMatrix - Regimen: Daily Repeat; format: toxicity, organism-based, Sprague-Dawley; design: regimen Daily Repeat, gender Male, age 6-8 weeks; conditions: in vivo, po, 0 mg/kg, 120 h, tissue Blood, route oral GAVAGE, dose level Control, time 5 day, […]

- compound: "CC[C@H](C)C(=O)O[C@H]1C[C@@H](C)C=C2C=C[C@H](C)[C@H](CC[C@@H]3C[C@@H](O)CC(=O)O3)[C@H]21"
  ABSOLUTE LYMPHOCYTE: "8734 CELLS/uL"
- compound: "CC(C)Cc1ccc(CC(=O)O)cc1"
  ABSOLUTE LYMPHOCYTE: "12695.83 CELLS/uL"
- compound: "CC(=O)Nc1nnc(S(N)(=O)=O)s1 [ACETAZOLAMIDE]"
  ABSOLUTE LYMPHOCYTE: "9065 CELLS/uL"
- compound: "COc1ncnc(NS(=O)(=O)c2ccc(N)cc2)c1OC"
  ABSOLUTE LYMPHOCYTE: "9065 CELLS/uL"
- compound: "CN(CCOc1ccc(CC2SC(=O)NC2=O)cc1)c1ccccn1 (stereo not given)"
  ABSOLUTE LYMPHOCYTE: "8049.5 CELLS/uL"

====

species on record: Rattus norvegicus; experiment: DrugMatrix - Regimen: Daily Repeat; type: toxicity, organism-based, Sprague-Dawley; design: regimen Daily Repeat, gender Male, age 6-8 weeks; conditions: in vivo, po, 0 mg/kg, 120 h, tissue Plasma, route oral GAVAGE, dose level Control, time 5 day, […]
Reported values of POTASSIUM for individual entries

- compound: "CN(CCOc1ccc(CC2SC(=O)NC2=O)cc1)c1ccccn1 (stereo not drawn)"
  unit_text: "MEQ/L"
  POTASSIUM: 5.72
- compound: "CC(C)Cc1ccc(CC(=O)O)cc1"
  unit_text: "MEQ/L"
  POTASSIUM: 6.58
- compound: "CC(=O)Nc1nnc(S(N)(=O)=O)s1 [ACETAZOLAMIDE]"
  unit_text: "MEQ/L"
  POTASSIUM: 5.78
- compound: "CCn1cc(C(=O)O)c(=O)c2cc(F)c(N3CCNCC3)nc21"
  unit_text: "MEQ/L"
  POTASSIUM: 6.28
- compound: "OCCN1CCN(CCCN2c3ccccc3Sc3ccc(C(F)(F)F)cc32)CC1"
  unit_text: "MEQ/L"
  POTASSIUM: 5.34
- compound: "CC(CCc1ccc(O)cc1)NCCc1ccc(O)c(O)c1 (stereo not drawn)"
  unit_text: "MEQ/L"
  POTASSIUM: 6.1
- compound: "C#C[C@]1(O)CC[C@H]2[C@@H]3CCc4cc(O)ccc4[C@H]3CC[C@@]21C"
  unit_text: "MEQ/L"
  POTASSIUM: 6.28
- compound: "COc1ncnc(NS(=O)(=O)c2ccc(N)cc2)c1OC"
  unit_text: "MEQ/L"
  POTASSIUM: 5.78

====

species on record: Rattus norvegicus; test: DrugMatrix - Regimen: Daily Repeat; assay type: toxicity, organism-based, Sprague-Dawley; design: regimen Daily Repeat, gender Male, age 6-8 weeks; conditions: in vivo, po, 100 mg/kg, 120 h, tissue Plasma, route oral GAVAGE, dose level Low, time 5 day, vehicle .5 % CMC
measured_metric: PHOSPHORUS (mg/dL)

- molecule: "C#C[C@]1(O)CC[C@H]2[C@@H]3CCC4=Cc5oncc5C[C@]4(C)[C@H]3CC[C@@]21C"
  measured_metric: "PHOSPHORUS"
  observed_value: 10.93
- molecule: "CC=Cc1ccc(O)c(OC)c1"
  measured_metric: "PHOSPHORUS"
  observed_value: 11.17
- molecule: "CC[C@]1(O)CC[C@H]2[C@@H]3CCC4=CCCC[C@@H]4[C@H]3CC[C@@]21C"
  measured_metric: "PHOSPHORUS"
  observed_value: 12.6
- molecule: "Nc1nc2c(c(=O)[nH]1)N(C=O)C(CNc1ccc(C(=O)N[C@@H](CCC(=O)O)C(=O)O)cc1)CN2 (some centres undefined)"
  measured_metric: "PHOSPHORUS"
  observed_value: 12.6

====

species: Rattus norvegicus; test: DrugMatrix - Regimen: Daily Repeat; type: toxicity, organism-based, Sprague-Dawley; parameters: regimen Daily Repeat, gender Male, age 6-8 weeks; conditions: in vivo, po, 1500 mg/kg, 120 h, tissue Plasma, route oral GAVAGE, dose level High, time 5 day, vehicle .5 % CMC

- compound: "O=c1cc(-c2ccccc2)oc2ccc3ccccc3c12 [BETA-NAPHTHOFLAVONE]"
  unit_text: "u/L"
  CREATINE PHOSPHOKINASE: 145
- compound: "Nc1nc2c(c(=O)[nH]1)N(C=O)C(CNc1ccc(C(=O)N[C@@H](CCC(=O)O)C(=O)O)cc1)CN2 (stereo not given in full) [LEUCOVORIN]"
  unit_text: "u/L"
  CREATINE PHOSPHOKINASE: 288.67
- compound: "C[C@@H](O)[C@H]1C(=O)N2C(C(=O)O)=C(S[C@@H]3CN[C@H](C(=O)N(C)C)C3)[C@H](C)[C@H]12 [MEROPENEM]"
  unit_text: "u/L"
  CREATINE PHOSPHOKINASE: 199
- compound: "CCOC(=O)[C@H](CCc1ccccc1)N[C@@H](C)C(=O)N1CCC[C@H]1C(=O)O"
  unit_text: "u/L"
  CREATINE PHOSPHOKINASE: 295.67
- compound: "CC(C)(Sc1cc(C(C)(C)C)c(O)c(C(C)(C)C)c1)Sc1cc(C(C)(C)C)c(O)c(C(C)(C)C)c1 [PROBUCOL]"
  unit_text: "u/L"
  CREATINE PHOSPHOKINASE: 227.67

====

Reported values of LIPASE for individual entries
species on record: Rattus norvegicus; test: DrugMatrix - Regimen: Daily Repeat; assay type: toxicity, organism-based, Sprague-Dawley; parameters: regimen Daily Repeat, gender Male, age 6-8 weeks; conditions: in vivo, po, 1500 mg/kg, 120 h, tissue Plasma, route oral GAVAGE, dose level High, time 5 day, vehicle .5 % CMC
measured_metric: LIPASE (u/L)

- molecule: "CC(C)(Sc1cc(C(C)(C)C)c(O)c(C(C)(C)C)c1)Sc1cc(C(C)(C)C)c(O)c(C(C)(C)C)c1 [PROBUCOL]"
  observed_value: 8.33
- molecule: "Nc1nc2c(c(=O)[nH]1)N(C=O)C(CNc1ccc(C(=O)N[C@@H](CCC(=O)O)C(=O)O)cc1)CN2 (some centres undefined) [LEUCOVORIN]"
  observed_value: 9
- molecule: "C[C@@H](O)[C@H]1C(=O)N2C(C(=O)O)=C(S[C@@H]3CN[C@H](C(=O)N(C)C)C3)[C@H](C)[C@H]12 [MEROPENEM]"
  observed_value: 9
- molecule: "CCOC(=O)[C@H](CCc1ccccc1)N[C@@H](C)C(=O)N1CCC[C@H]1C(=O)O"
  observed_value: 9

====

Reported values of NUCLEATED RED BLOOD CELLS for individual entries
organism: Rattus norvegicus; assay: DrugMatrix - Regimen: Daily Repeat; type: toxicity, organism-based, Sprague-Dawley; parameters: regimen Daily Repeat, gender Male, age 6-8 weeks; details: in vivo, po, 0 mg/kg, 120 h, tissue Blood, route oral GAVAGE, dose level Control, time 5 day, vehicle 100 % WATER

- compound: "OCCO"
  NUCLEATED RED BLOOD CELLS: "0.17 /100WBC"
- compound: "CC[C@H]1OC(=O)[C@H](C)[C@@H](O[C@H]2C[C@@](C)(OC)[C@@H](O)[C@H](C)O2)[C@H](C)[C@@H](O[C@@H]2O[C@H](C)C[C@H](N(C)C)[C@H]2O)[C@](C)(OC)C[C@@H](C)C(=O)[C@H](C)[C@@H](O)[C@]1(C)O"
  NUCLEATED RED BLOOD CELLS: "0 /100WBC"
- compound: "CCOC(N)=O"
  NUCLEATED RED BLOOD CELLS: "0 /100WBC"
- compound: "Nc1ccc(S(=O)(=O)Nc2nccs2)cc1"
  NUCLEATED RED BLOOD CELLS: "0 /100WBC"
- compound: "CCN(CC)CC#CCOC(=O)C(O)(c1ccccc1)C1CCCCC1 (stereo unspecified)"
  NUCLEATED RED BLOOD CELLS: "0.17 /100WBC"
- compound: "CC(C)(C)NC[C@H](O)COc1nsnc1N1CCOCC1"
  NUCLEATED RED BLOOD CELLS: "0 /100WBC"

====

Reported values of TOTAL PROTEIN for individual entries
species: Rattus norvegicus; experiment: DrugMatrix - Regimen: Daily Repeat; type: toxicity, organism-based, Sprague-Dawley; design: regimen Daily Repeat, gender Male, age 6-8 weeks; conditions: in vivo, po, 100 mg/kg, 72 h, tissue Plasma, route oral GAVAGE, dose level Low, time 3 day, vehicle .5 % CMC
measured_metric: TOTAL PROTEIN

- compound: "CC=Cc1ccc(O)c(OC)c1 [ISOEUGENOL]"
  observed_value: "5.83 G/DL"
- compound: "CC[C@]1(O)CC[C@H]2[C@@H]3CCC4=CCCC[C@@H]4[C@H]3CC[C@@]21C"
  observed_value: "6 G/DL"
- compound: "C#C[C@]1(O)CC[C@H]2[C@@H]3CCC4=Cc5oncc5C[C@]4(C)[C@H]3CC[C@@]21C [DANAZOL]"
  observed_value: "5.97 G/DL"
- compound: "Nc1nc2c(c(=O)[nH]1)N(C=O)C(CNc1ccc(C(=O)N[C@@H](CCC(=O)O)C(=O)O)cc1)CN2 (some centres undefined) [LEUCOVORIN]"
  observed_value: "6.1 G/DL"
